- System: MCF7
- test.details: Antiproliferative activity against ER/PR positive human MCF7 cells after 24 hrs by MTT assay
- Format: functional, cell-based
- condition.set: MCF7, 24 h
pIC50: −log10 of the molar value.

compound: COc1cc(/C=C/C(=O)CC(=O)/C=C/c2ccc(O)c(OC)c2)ccc1O [CURCUMIN]
assayed.system: MCF7
pIC50: 4.37
//
compound: COc1cc(/C=C/C(=O)/C=C(O)/C=C/c2ccc(OC(=O)C(C)(CO)CO)c(OC)c2)ccc1OC(=O)C(C)(CO)CO
assayed.system: MCF7
pIC50: 5.21

###

- test.details: Solubility of the compound in water after 24 hrs by shake-flask method
- Type: physicochemical
solubility thermodynamic at 24 h listing for selected molecules.
outcome.measure: solubility thermodynamic at 24 h (µg/mL)

smiles.notation: COc1cc(/C=C/C(=O)CC(=O)/C=C/c2ccc(O)c(OC)c2)ccc1O
unit.abbrev: µg/mL
result.number: 0.6

smiles.notation: COc1cc(/C=C/C(=O)/C=C(O)/C=C/c2ccc(OC(=O)C(C)(CO)CO)c(OC)c2)ccc1OC(=O)C(C)(CO)CO
unit.abbrev: µg/mL
result.number: 21.1
